# testSystem: T1, NKp46 mutant 19 (human, UniProt O76036 22-304)
# T1 construct: Expressed in transfected HEK293T cells
# T1 chain: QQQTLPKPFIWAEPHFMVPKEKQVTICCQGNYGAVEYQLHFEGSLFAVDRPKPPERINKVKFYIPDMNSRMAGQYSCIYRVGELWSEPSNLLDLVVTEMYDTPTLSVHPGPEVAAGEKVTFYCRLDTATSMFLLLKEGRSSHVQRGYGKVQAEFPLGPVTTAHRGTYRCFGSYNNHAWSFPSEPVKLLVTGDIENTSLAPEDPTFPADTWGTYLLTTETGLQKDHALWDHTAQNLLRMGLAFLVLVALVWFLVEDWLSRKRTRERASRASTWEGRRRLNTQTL
# testProtocol: flow cytometry on HEK293T cells transfected with NKp46 mutant 19 (I135A, S136A), antibody titrated 0.001-1 ug/ml

binder | binding result
NKp46-4 (antibody, V domains shown, also called Antibody NKp46-4) VH: QVQLQQSAVELARPGASVKMSCKASGYTFTSFTMHWVKQRPGQGLEWIGYINPSSGYTEYNQKFKDKTTLTADKSSSTAYMQLDSLTSDDSAVYYCVRGSSRGFDYWGQGTLVTVSA VL: DIQMIQSPASLSVSVGETVTITCRASENIYSNLAWFQQKQGKSPQLLVYAATNLADGVPSRFSGSGSGTQYSLKINSLQSEDFGIYYCQHFWGTPRTFGGGTKLEIK | binds
NKp46-6 (antibody, V domains shown, not in the list MOLECULES as an antibody; also called antibody NKp46-6; monoclonal antibody NKp46-6) VH: QVQLQQPGSVLVRPGASVKLSCKASGYTFTSSWMHWAKQRPGQGLEWIGHIHPNSGISNYNEKFKGKATLTVDTSSSTAYVDLSSLTSEDSAVYYCARGGRFDDWGAGTTVTVSS VL: DIVMTQSPATLSVTPGDRVSLSCRASQSISDYLHWYQQKSHESPRLLIKYASQSISGIPSRFSGSGSGSDFTLSINSVEPEDVGVYYCQNGHSFLMYTFGGGTKLEIK | binds
